# FLIPR IC50 (GRO-α induced calcium release) per record follows
assay system: T1, Cynomolgus CXCR2 (cynomolgus, UniProt Q28519 3-353 (rhesus entry))
T1 chain: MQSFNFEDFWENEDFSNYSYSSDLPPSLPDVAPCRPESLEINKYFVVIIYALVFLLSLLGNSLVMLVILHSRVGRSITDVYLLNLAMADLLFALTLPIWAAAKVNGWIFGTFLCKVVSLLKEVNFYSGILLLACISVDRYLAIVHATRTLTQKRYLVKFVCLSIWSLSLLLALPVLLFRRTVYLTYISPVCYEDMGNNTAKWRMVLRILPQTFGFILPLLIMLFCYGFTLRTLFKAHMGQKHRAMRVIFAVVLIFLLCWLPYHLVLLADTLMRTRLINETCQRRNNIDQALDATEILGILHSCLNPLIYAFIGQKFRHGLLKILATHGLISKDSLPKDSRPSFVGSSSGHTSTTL
experiment: cell-based or functional assay
Kindly provide the numeric value in nM only, without the unit symbol.

// below: answered binders
2B2 (VHH, Tested as periplasmic extract (pAX50) and as purified His6-tagged protein (pAX100); also called 002B02; not shown: C-terminal c-myc tag and His6 tag coded by the vector) VHH: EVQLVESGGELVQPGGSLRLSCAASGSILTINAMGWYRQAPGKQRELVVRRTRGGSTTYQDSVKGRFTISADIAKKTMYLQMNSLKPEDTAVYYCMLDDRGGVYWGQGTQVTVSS = 3850
127D1 (VHH, Tested as periplasmic extract (pAX50) and as purified His6-tagged protein (pAX100); also called 127D01; not shown: C-terminal c-myc tag and His6 tag coded by the vector) VHH: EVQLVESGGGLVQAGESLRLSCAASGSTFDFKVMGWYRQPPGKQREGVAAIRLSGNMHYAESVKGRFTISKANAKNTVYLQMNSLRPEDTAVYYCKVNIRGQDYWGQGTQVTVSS = 753
163D2 (VHH, Tested as periplasmic extract (pAX50) and as purified His6-tagged protein (pAX100); also called 163D02; not shown: C-terminal c-myc tag and His6 tag coded by the vector) VHH: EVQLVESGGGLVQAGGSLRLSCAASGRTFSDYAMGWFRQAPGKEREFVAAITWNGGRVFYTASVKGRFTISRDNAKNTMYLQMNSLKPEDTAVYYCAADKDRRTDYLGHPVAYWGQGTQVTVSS = 37.2
97A9 (VHH, Tested as periplasmic extract (pAX50) and as purified His6-tagged protein (pAX100); also called 097A09; not shown: C-terminal c-myc tag and His6 tag coded by the vector) VHH: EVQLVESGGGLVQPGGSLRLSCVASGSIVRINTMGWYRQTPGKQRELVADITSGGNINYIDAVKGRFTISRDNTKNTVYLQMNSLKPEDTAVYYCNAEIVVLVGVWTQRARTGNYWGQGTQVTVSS = 640
163E3 (VHH, Tested as periplasmic extract (pAX50) and as purified His6-tagged protein (pAX100); also called 163E03; not shown: C-terminal c-myc tag and His6 tag coded by the vector) VHH: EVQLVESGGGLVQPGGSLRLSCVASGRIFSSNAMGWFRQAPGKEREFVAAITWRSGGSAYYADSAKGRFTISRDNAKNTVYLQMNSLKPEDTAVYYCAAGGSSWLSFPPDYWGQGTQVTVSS = 158

Problem: Given 54B12 (VHH, Tested as periplasmic extract (pAX50) and as purified His6-tagged protein (pAX100); also called 054B12; not shown: C-terminal c-myc tag and His6 tag coded by the vector) VHH: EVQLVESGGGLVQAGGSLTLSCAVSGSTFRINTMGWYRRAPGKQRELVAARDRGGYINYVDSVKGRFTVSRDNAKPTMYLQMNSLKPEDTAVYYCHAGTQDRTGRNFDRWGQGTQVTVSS , state its recorded FLIPR IC50 (GRO-α induced calcium release).
Solution: 4080
